Data origin: PubChem BioAssay AID624129

tested on: C-C chemokine receptor type 6 (Homo sapiens) (UniProt P51684)
assay comment: potency against CXCR6 with APJ panel – cell-based, beta-arrestin, DiscoveRx, uHTS hits, dose response (AID 624129)
test context: CXCR6 beta-arrestin (DiscoveRx) antagonist cell assay, CCR6, run 2, dose range 1
Listed next: entries and their corresponding pIC50.
pIC50 (log units): -log10 of the concentration in mol/L.

>>> value_reported("CC(C)c1ccc(O)c(NC(=S)NC(=O)c2cccnc2)c1")
5.03
>>> value_reported("Cc1cc(C)c2c(=O)n(CC(=O)Nc3cccc(Cl)c3C)sc2n1")
5.45
>>> value_reported("Cc1ccc2c(c1)C1CN(C)CCC1N2C(=S)NC(=O)c1ccc(Br)cc1 (stereo not drawn)")
4.81

Please report the recorded pIC50 for NNc1nc(-c2ccccc2)cc(-c2ccccc2O)n1 . 5.17

Consider next the molecule CCC(C)c1ccc(O)c(NC(=S)NC(=O)c2cccnc2)c1 (stereo not drawn) in the same way. 4.79

Consider next the molecule CN(O)C(=S)c1ccccc1 in the same way. 5.72

Consider next the molecule CN(C)c1nc(=NCc2cccs2)ss1 in the same way. 5.97
